Biological target: T1, Human TROP2 ECD (31-274 AA), biotinylated (human, UniProt P09758 31-274, biotinylated (site not stated))
T1 construct: also called tumor-associated calcium signal transducer 2; Human TROP2-biotin
T1 sequence: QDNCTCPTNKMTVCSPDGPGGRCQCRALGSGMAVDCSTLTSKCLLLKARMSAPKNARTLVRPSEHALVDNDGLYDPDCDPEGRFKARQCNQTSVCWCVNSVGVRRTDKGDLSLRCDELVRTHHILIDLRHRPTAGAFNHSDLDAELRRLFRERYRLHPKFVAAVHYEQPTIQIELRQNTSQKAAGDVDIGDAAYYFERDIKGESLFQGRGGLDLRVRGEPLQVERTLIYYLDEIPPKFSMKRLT
Test: ELISA, ratio of EC50 to that of TBD-1 wt
Here, each record is paired with measured Fold shift in EC50 relative to wt data.

[
  {
    "binder": "TBD-2 (anti-TROP2 Fab, LC Q89A) (Fab, V domains shown) VH: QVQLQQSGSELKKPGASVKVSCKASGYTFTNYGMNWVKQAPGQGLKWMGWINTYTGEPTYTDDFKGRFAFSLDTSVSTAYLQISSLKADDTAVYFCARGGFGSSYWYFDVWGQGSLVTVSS VL: DIQLTQSPSSLSASVGDRVSITCKASQDVSIAVAWYQQKPGKAPKLLIYSASYRYTGVPDRFSGSGSGTDFTLTISSLQPEDFAVYYCAQHYITPLTFGAGTKVEIKR",
    "display unit": "fold",
    "Fold shift in EC50 relative to wt": 23.5
  },
  {
    "binder": "TBD-8 (anti-TROP2 Fab, LC P95A) (Fab, V domains shown) VH: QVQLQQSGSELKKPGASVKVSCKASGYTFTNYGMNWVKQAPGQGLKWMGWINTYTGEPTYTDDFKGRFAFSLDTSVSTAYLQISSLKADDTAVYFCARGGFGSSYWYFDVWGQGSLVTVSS VL: DIQLTQSPSSLSASVGDRVSITCKASQDVSIAVAWYQQKPGKAPKLLIYSASYRYTGVPDRFSGSGSGTDFTLTISSLQPEDFAVYYCQQHYITALTFGAGTKVEIKR",
    "display unit": "fold",
    "Fold shift in EC50 relative to wt": 1
  },
  {
    "binder": "TBD-6 (anti-TROP2 Fab, LC I93A) (Fab, V domains shown, also called TBD-6 (LC I93A mutant)) VH: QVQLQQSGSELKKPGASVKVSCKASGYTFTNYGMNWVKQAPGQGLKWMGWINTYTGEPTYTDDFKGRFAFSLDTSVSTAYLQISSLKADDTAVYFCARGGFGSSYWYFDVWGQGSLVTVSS VL: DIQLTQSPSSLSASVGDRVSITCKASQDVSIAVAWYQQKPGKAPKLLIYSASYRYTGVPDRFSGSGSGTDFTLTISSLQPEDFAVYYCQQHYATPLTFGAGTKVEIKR",
    "display unit": "fold",
    "Fold shift in EC50 relative to wt": 1.5
  },
  {
    "binder": "TBD-10 (anti-TROP2 Fab, LC T97A) (Fab, V domains shown) VH: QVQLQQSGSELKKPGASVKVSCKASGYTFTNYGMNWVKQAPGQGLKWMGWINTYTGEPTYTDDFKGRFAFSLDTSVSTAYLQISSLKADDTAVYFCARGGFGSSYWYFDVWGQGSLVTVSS VL: DIQLTQSPSSLSASVGDRVSITCKASQDVSIAVAWYQQKPGKAPKLLIYSASYRYTGVPDRFSGSGSGTDFTLTISSLQPEDFAVYYCQQHYITPLAFGAGTKVEIKR",
    "display unit": "fold",
    "Fold shift in EC50 relative to wt": 1.5
  },
  {
    "binder": "TBD-9 (anti-TROP2 Fab, LC L96A) (Fab, V domains shown) VH: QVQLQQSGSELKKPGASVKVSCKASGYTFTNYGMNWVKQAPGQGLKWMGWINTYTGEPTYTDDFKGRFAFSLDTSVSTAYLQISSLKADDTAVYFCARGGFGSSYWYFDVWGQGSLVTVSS VL: DIQLTQSPSSLSASVGDRVSITCKASQDVSIAVAWYQQKPGKAPKLLIYSASYRYTGVPDRFSGSGSGTDFTLTISSLQPEDFAVYYCQQHYITPATFGAGTKVEIKR",
    "display unit": "fold",
    "Fold shift in EC50 relative to wt": 84
  },
  {
    "binder": "TBD-7 (anti-TROP2 Fab, LC T94A) (Fab, V domains shown) VH: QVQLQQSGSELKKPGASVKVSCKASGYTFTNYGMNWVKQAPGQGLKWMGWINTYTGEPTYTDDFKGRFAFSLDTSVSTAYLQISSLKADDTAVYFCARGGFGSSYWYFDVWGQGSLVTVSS VL: DIQLTQSPSSLSASVGDRVSITCKASQDVSIAVAWYQQKPGKAPKLLIYSASYRYTGVPDRFSGSGSGTDFTLTISSLQPEDFAVYYCQQHYIAPLTFGAGTKVEIKR",
    "display unit": "fold",
    "Fold shift in EC50 relative to wt": 1
  },
  {
    "binder": "TBD-3 (anti-TROP2 Fab, LC Q90A) (Fab, V domains shown) VH: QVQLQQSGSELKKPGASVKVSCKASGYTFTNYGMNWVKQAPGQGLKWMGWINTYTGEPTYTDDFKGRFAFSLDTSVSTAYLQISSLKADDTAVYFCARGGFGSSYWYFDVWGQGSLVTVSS VL: DIQLTQSPSSLSASVGDRVSITCKASQDVSIAVAWYQQKPGKAPKLLIYSASYRYTGVPDRFSGSGSGTDFTLTISSLQPEDFAVYYCQAHYITPLTFGAGTKVEIKR",
    "display unit": "fold",
    "Fold shift in EC50 relative to wt": 1.5
  }
]
